The following compounds are listed with their measured IC50 values.
# tested_on: β1-adrenergic receptor (Rattus norvegicus)
# Construct: membranes from rat heart; from tissue; host or cells: rat heart membranes
# Sequence (P18090 whole entry): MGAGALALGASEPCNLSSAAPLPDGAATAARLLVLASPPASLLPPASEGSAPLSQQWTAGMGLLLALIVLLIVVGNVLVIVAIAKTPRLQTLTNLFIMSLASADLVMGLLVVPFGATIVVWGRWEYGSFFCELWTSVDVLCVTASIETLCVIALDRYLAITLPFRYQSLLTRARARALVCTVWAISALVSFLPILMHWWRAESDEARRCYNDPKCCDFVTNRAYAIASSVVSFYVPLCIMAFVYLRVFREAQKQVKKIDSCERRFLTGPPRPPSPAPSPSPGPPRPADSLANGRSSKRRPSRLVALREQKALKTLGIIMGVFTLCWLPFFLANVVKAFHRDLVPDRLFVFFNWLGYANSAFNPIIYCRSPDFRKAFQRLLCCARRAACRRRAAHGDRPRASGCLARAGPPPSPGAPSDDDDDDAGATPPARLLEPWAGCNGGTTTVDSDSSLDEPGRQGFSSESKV
# assay_comment: Heart membrane binding (β1-effect), [125I]iodocyanopindolol
# reported_conditions: rat heart membranes, 1 hour
Structures can show the parent of a compound that is named as a salt.

Previously resolved entries follow.
# compound, result
measured = [
    ("O=C(O)C1(C(=O)O)Oc2cc3c(cc2O1)CC(NCC(O)c1cccc(Cl)c1)CC3 (stereo not shown) [Example 7, disodium salt]", "> 1000 nM"),
    ("O=C(O)C1(C(=O)O)Oc2ccc3c(c2O1)C[C@H](NC[C@H](O)c1cccc(Cl)c1)C3 [Example 4, disodium salt]", "> 1000 nM"),
    ("O=C(O)C1(C(=O)O)Oc2ccc3c(c2O1)C[C@@H](NC[C@H](O)c1cccc(Cl)c1)C3 [Example 3, disodium salt]", "> 1000 nM"),
]

Please find the next compound below.
Query string: Annotate the compound O=C(O)C1(C(=O)O)Oc2cc3c(cc2O1)CC(NC[C@H](O)c1cccc(Cl)c1)C3 [Example 5, disodium salt] with its measured IC50.
Result string: > 1000 nM
